# systemUnderTest: T1, Bfl-1, Q16548
# T1 chain: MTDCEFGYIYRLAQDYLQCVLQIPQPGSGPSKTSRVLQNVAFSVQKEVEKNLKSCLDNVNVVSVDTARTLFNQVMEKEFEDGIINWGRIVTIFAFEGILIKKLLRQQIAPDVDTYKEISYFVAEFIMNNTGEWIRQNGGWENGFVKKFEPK
# assayMethodText: peptide SPOT array, c-Myc-tagged receptor at 1 uM or 100 nM, anti-c-Myc-Cy3
quantityMeasured: SPOT signal as a fraction of Bim BH3's signal on the same receptor and array
// print number alone

The examples below pair each entry with its known result.
{"columns": ["binder", "assayValue"],
 "data": [
  ["FGEYSGISENIILVGDDFWIPETSFI [ROS1]", 0.04],
  ["ISSLDLLPYGLRYIAKVLKNSIHEKF [IQGAP2]", 0.64],
  ["QCPIFRLGDIFRETGDNFSDVAIQGG [P2RX7]", 0.04]
]}

# input for lookup
Can you look up the measured SPOT signal as a fraction of Bim BH3's signal on the same receptor and array of LDFTFVCPTEDIAFGDRLEEFRSINT [PRDX4] for me?
0.03
